# System: S. pneumoniae
# PROTOCOL_DESCRIPTION: MIC by agar plate dilution against clinical isolates of S. pneumoniae
# Type: cell-based
# MEASUREMENT_PARAMETERS: Streptococcus pneumoniae, 6 strains of S. pneumoniae (clinical isolates), 18 to 24 hr, 35° C, read-out: MIC or MIC range, S. pneumoniae
EXPERIMENTAL_ENDPOINT: MIC

Report measured MIC on S. pneumoniae; entry: COc1ccccc1NC(=O)N1CCCCN1C(=O)[C@H](CC1CCCC1)CN(O)C=O
4 to 8 µg/mL

Quote S. pneumoniae MIC for entry O=CN(O)C[C@@H](CC1CCCC1)C(=O)N1CCCCN1C(=O)C1CCCCC1 .
0.5 to 2 µg/mL

Quote MIC with test system S. pneumoniae for O=CN(O)C[C@@H](CC1CCCC1)C(=O)N1CCCN1C(=O)Cc1ccccc1
4 to 8 µg/mL
